Measured values drawn from PubChem BioAssay for this set.

biological target: Receptor tyrosine-protein kinase erbB-2 (Homo sapiens); test: Her2 expression decrease, cell viability multiplex – SKBR3 breast tumor cells, AlphaScreen, ATP viability, primary screen (AID 461); details: 18-24 h, at 10 µM, active compounds read low;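 also: lower value means less Her2 protein in the cells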
Quantity: Her2 level (%)
Write the answer as a number in %, unit excluded.

Consider the reported Her2 level for these compounds:
{"Compound": "O=c1c2ccccc2nc2n1CCN2", "Her2 level [%]": 95.5}
{"Compound": "COc1ccc(OC)c(C(C)NC=O)c1 (centres undefined)", "Her2 level [%]": 90.5}
{"Compound": "CN(C)CCNc1oc(-c2ccccc2F)nc1C#N", "Her2 level [%]": 94}
{"Compound": "CCOC(=O)C1=C(C)NC(=O)NC1c1ccc(Br)s1 (centres undefined)", "Her2 level [%]": 102}
{"Compound": "O=C1CCCC2=C1C(c1cccs1)n1nc(SCc3ccccc3F)nc1N2 (centres undefined)", "Her2 level [%]": 99.5}

Notebook: COCCn1c(SCC(=O)Nc2ccc3c(c2)OCCO3)nc2c(c1=O)SC(C)C2 (centres undefined) , Her2 level read as 110

Notebook: "COc1cccc(/C=N/n2cnnc2)c1OCc1ccccc1" , Her2 level read as 104

Notebook: "Cc1cc(C)n2c(SCCN3C(=O)c4ccccc4C3=O)nnc2n1" , Her2 level read as 95

Notebook: "COc1ccc(-c2nc(C)c(C(C)=O)n2O)cc1OC" , Her2 level read as 112

Notebook: COc1cccc(C2CC(c3ccc(C)cc3)Nc3nc(N)nn32)c1 (centres undefined) , Her2 level read as 98.5

Notebook: "Cc1cc(C)nc(NC2=NCC(=O)N2c2ccccc2Br)n1" , Her2 level read as 93.5

Notebook: "O=C(c1ccco1)N1CCN(C2=NS(=O)(=O)c3ccccc32)CC1" , Her2 level read as 142

---

Recorded differential viability (reversal) values for a group of compounds are listed next.
test: MRP1 drug-resistance reversers in H69AR cells – cell-based, doxorubicin co-treatment, pilot screen (AID 601); settings: H69AR cells + 2 uM doxorubicin, CellTiter-Glo, 72 h; at 10 µM; active compounds read high
Write the answer as a number in %, unit excluded.

{"Compound": "CSc1cccc(NS(=O)(=O)c2ccccc2)c1", "differential viability (reversal) [%]": 1.02}
{"Compound": "CCOC(=O)C(C)(C)Sc1nc2c(cnn2-c2ccc(Cl)cc2)c(=O)[nH]1", "differential viability (reversal) [%]": -3.56}
{"Compound": "Cc1cccc(NC(=O)Nc2cccc(C#N)c2)n1", "differential viability (reversal) [%]": -3.47}

Notebook: "CCOc1ccc(N(CC(=O)Nc2ccc(F)c(F)c2)S(=O)(=O)c2c(C)noc2C)cc1" , differential viability (reversal) read as 1.49

Notebook: O=C1C2C3C=CC(C3)C2C(=O)N1c1cccc(N2C(=O)C3C4C=CC(C4)C3C2=O)n1 (stereo unspecified) , differential viability (reversal) read as -4.17

Notebook: CC(Oc1ccc2oc(-c3ccccc3)c(C(=O)O)c2c1)C(=O)O (stereo unspecified) , differential viability (reversal) read as 6.43

---

Recorded viability values for a group of compounds are listed next.
assay: HUVEC growth inhibition – cell-based, human, primary screen (AID 575); conditions: HUVEC proliferation, CellTiter-Glo luminescence, 72 h; at 10 µM; active compounds read low;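 also: 100% = median of untreated cell wells with 0.1% DMSO on each plate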
Write the answer as a number in %, unit excluded.

Consider the reported viability for these compounds:
{"Compound": "CCc1c(C)n([O-])c2c([n+]1=O)CCC2", "Quantity": "viability", "Measured": 89.2}
{"Compound": "COc1ccc(-c2nnc(SCC(=O)N3CCOCC3)o2)cc1OC", "Quantity": "viability", "Measured": 89.4}
{"Compound": "O=C(C1CC1)N1CCc2cc(Br)cc(S(=O)(=O)N3CCOCC3)c21", "Quantity": "viability", "Measured": 88.5}
{"Compound": "O=C(c1cccc(F)c1)N1CCc2ccccc21", "Quantity": "viability", "Measured": 91.2}

Notebook: COc1ccc(OC)c(C2C(C(=O)Nc3ccc(F)cc3)=C(C)Nc3nc(CCCO)nn32)c1 (stereo unspecified) , viability read as 91

Notebook: COc1ccc(C2C(C(=O)Nc3cccnc3)=C(C)Nc3nc(-c4cccs4)nn32)cc1OC (stereo unspecified) , viability read as 90.5

---

assay: reduced viability of SK-BR-3 breast cancer cells – cell-based, 24 h, human, pilot screen (AID 572); conditions: SK-BR-3 viability, CellTiter-Glo luminescence, at 10 µM, active compounds read low;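 also: compound exposure lasted between 18 and 24 h rather than exactly 24 h; 100% = carrier-treated control wells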
The label Criterion met is reserved for viability strictly under 90%; Criterion not met covers values equal to or above it.

Example entries begin here.
{"Compound": "Cc1ccc(C(=O)Nc2c(C(=O)N3CCOCC3)cnn2-c2ccccc2)cc1", "Group": "Criterion not met"}
{"Compound": "CCN(CC)C(=O)Cn1ncc2c1-c1ccccc1OC2", "Group": "Criterion met"}
{"Compound": "O=C1c2ccccc2C(=O)N1C/C=C/CN1C(=O)c2ccccc2C1=O", "Group": "Criterion met"}
{"Compound": "O=C(CCn1[nH]c(=O)c2ccccc2c1=O)NCCO", "Group": "Criterion met"}
{"Compound": "CCN1C(=C2C(=O)c3ccccc3C2=O)C=Cc2ccccc21", "Group": "Criterion not met"}
{"Compound": "O=C(c1sc2ccccc2c1Cl)N(Cc1cccs1)C1CCS(=O)(=O)C1 (stereo unspecified)", "Group": "Criterion not met"}
{"Compound": "NC(=O)CSc1cn(CCNC(=O)c2cccs2)c2ccccc12", "Group": "Criterion not met"}
{"Compound": "CCOc1ccc(N2C(=O)CC(N3CC(C)OC(C)C3)C2=O)cc1 (stereo unspecified)", "Group": "Criterion not met"}

Turning now to a further record.
Task item: For "COc1ccc(C(=O)Nc2nncs2)c(OC)c1" , is the recorded viability below the cut-off of 90%?
Reply: Criterion not met

---

assay: S. cerevisiae growth inhibition in permissive medium (OD615), pilot counter-assay for S. cerevisiae lifespan shortening project, permissive growth control (AID 705); conditions: OD615, 24 h, at 10 µM, active compounds read high
Active and inactive are the calls of the source.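 The calls were made as follows: active = growth inhibition above 25% in both replicates, a cutoff set 3 SD above the mean; inconclusive = above 25% in only one replicate; inactive = the rest.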
Quantity: growth inhibition

Consider the reported growth inhibition for these molecules:
{"Molecule": "CCOC(=O)c1ccccc1NC(=O)CSc1nccn1C", "Measured": "-4.88% (inactive)"}
{"Molecule": "O=C(CCn1[nH]c(=O)c2ccccc2c1=O)NCCO", "Measured": "-16.2% (inactive)"}
{"Molecule": "CN(C)C(=O)Nc1cnc2ccccc2c1", "Measured": "0.64% (inactive)"}
{"Molecule": "COc1ccc(-c2nc(-c3cccc(C(F)(F)F)c3)no2)cc1OC", "Measured": "-2.88% (inactive)"}
{"Molecule": "CCOC(=O)c1csc(NC(=O)C2CCCCC2)n1", "Measured": "-5.67% (inactive)"}

Notebook: "CCOc1ccccc1N1C(=O)c2cccnc2C1=O" , growth inhibition read as -9.2% (inactive)

Notebook: "Cc1c(NC(=O)c2ccc(Br)o2)c(=O)n(-c2ccccc2)n1C" , growth inhibition read as -11.6% (inactive)

Notebook: "Cc1cc(C)c2c(=O)n(CC(=O)NCCCN3CCOCC3)sc2n1" , growth inhibition read as 4.33% (inactive)

Notebook: "COc1cc(NC(=O)c2cc3c(C)nc4ccccc4c3o2)cc(OC)c1OC" , growth inhibition read as 7.32% (inactive)

Notebook: CC(=O)N1CCN(CCN=CC2=C(O)CC(c3cccs3)CC2=O)CC1 (stereo not drawn) , growth inhibition read as -6.7% (inactive)

Notebook: "CCOCCCNC(=O)CN1CCN(Cc2ccccc2C)C1=O" , growth inhibition read as -4.88% (inactive)

Notebook: CCN1C(=O)c2ccccc2S(=O)c2ccc(C(=O)NC3CC3)cc21 (stereo not drawn) , growth inhibition read as 4.88% (inactive)

Notebook: "O=c1c2ccccc2nc2n1CCN2" , growth inhibition read as -3.22% (inactive)

Notebook: O=C(O)CC(NC(=O)c1ccccc1NC(=O)c1ccccc1)C(=O)O (stereo not drawn) , growth inhibition read as -0.82% (inactive)

Notebook: "C(=N\n1cnnc1)/c1cccc(OCCOc2ccccc2)c1" , growth inhibition read as -7.18% (inactive)

Notebook: "Cc1ccc(-c2cc3nc4c(c(=O)n3[nH]2)CCCC4)cc1" , growth inhibition read as -17% (inactive)

Notebook: "CCOC(=O)CNc1nc(C(C)(C)C)nc2c1nnn2Cc1ccccc1Cl" , growth inhibition read as 1.73% (inactive)

Notebook: "Cn1cccc1Cc1nnc(SCC(=O)Nc2nccs2)n1CCc1ccccc1" , growth inhibition read as 19.9% (inactive)

---

Recorded viability values for a group of compounds are listed next.
test: viability of PTEN-null HCT116 cells – cell-based, HCT116 clonal line, CellTiter-Glo, pilot screen (AID 824); settings: HCT116 PTEN-deleted viability, 60 h, at 10 µM, active compounds read low;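 also: 0% = 20 µM Hyamine control and 100% = vehicle cell control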
Records with an inconclusive call do not appear.
Write the answer as a number in %, unit excluded.

Consider the reported viability for these compounds:
{"Compound": "Cc1ccc(N(C(=O)C2CCC(=O)N2)C2(C(=O)NC3CCCCC3)CCCCC2)cc1 (configuration not stated)", "viability, %": 92.9}
{"Compound": "COc1ccc(C2C(C(=O)N3CCCC3)c3cc(OC)c(OC)cc3C(=O)N2C)cc1 (configuration not stated)", "viability, %": 92.8}
{"Compound": "COc1cc(OC)c(NC2c3ccccc3C(=O)N2c2cc(C)ccn2)cc1Cl (configuration not stated)", "viability, %": 84.2}
{"Compound": "N=C1C(c2nc3ccccc3c(=O)[nH]2)=C(O)CN1CCc1ccccc1", "viability, %": 87.2}
{"Compound": "CC1CCc2nn(CC(=O)NCCN3CCCCC3C)cc2C1 (configuration not stated)", "viability, %": 98.5}

Notebook: "CC(=O)Nc1cc(N2C(=O)CCC2=O)ccc1Cl" , viability read as 103

Notebook: O=C(NCCN1C(=O)C2C3C=CC(C3)C2C1=O)N1CCCCC1 (configuration not stated) , viability read as 95.1
